Values were extracted from ChEMBL document CHEMBL1124584.

- Tested on: BT-20
- Method summary: Inhibitory activity against proliferation of BT-20 cells in presence of TPE at 10e-5 M concentration.
- Type: functional
- Particulars: Homo sapiens
Measurement label: IC30 (µM)
Entry rule: numbers only, all in µM.

{"Smiles string": "COc1ccc(/C(=C(\\C#N)c2ccccc2)c2ccc(O)cc2)cc1", "IC30, µM": 2.7}
{"Smiles string": "CC(C)Oc1ccc(/C(=C(\\C#N)c2ccccc2)c2ccc(O)cc2)cc1", "IC30, µM": 3.9}
{"Smiles string": "CCC(=C(c1ccc(O)cc1)c1ccc(OCCN(C)C)cc1)c1ccccc1", "IC30, µM": 4.8}
{"Smiles string": "N#CC(=C(c1ccc(O)cc1)c1ccc(O)cc1)c1ccccc1", "IC30, µM": 10}
{"Smiles string": "Cc1ccc(/C(=C(\\C#N)c2ccccc2)c2ccc(O)cc2)cc1", "IC30, µM": 3.4}

The compound `CCN(CC)CCOc1ccc(C(=C(C#N)c2ccccc2)c2ccc(OCCN(CC)CC)cc2)cc1` showed IC30 equal to 3.3

Sure, the documented IC30 for `Cc1ccc(C(C#N)=C(c2ccc(O)cc2)c2ccc(O)cc2)cc1` is 8.2

`CN(C)Cc1cc(/C(=C(\C#N)c2ccccc2)c2ccc(O)cc2)ccc1O` yielded IC30 of 10

So, `CC(C)Oc1ccc(/C(=C(/C#N)c2ccccc2)c2ccc(O)cc2)cc1` ? Its IC30 was 5.1

Reported IC30 ( `Cc1ccc(/C(=C(/C#N)c2ccc(O)cc2)c2ccc(O)cc2)cc1` ) = 6.5

* * *

- System: BT-20
- Method summary: Inhibitory activity against proliferation of BT-20 cells in presence of TPE at 10e-5 M concentration.
- Type: functional
- Particulars: Homo sapiens
Measurement label: IC30 (µM)
Express your answer in µM, writing the number without its unit.

{"Compound": "Cc1ccc(/C(=C(/C#N)c2ccccc2)c2ccc(O)cc2)cc1", "IC30 [µM]": 8.4}
{"Compound": "CC/C(=C(\\c1ccccc1)c1ccc(OCCN(C)C)cc1)c1ccccc1 [TAMOXIFEN]", "IC30 [µM]": 5.7}
{"Compound": "CC(C)Oc1ccc(C(=C(C#N)c2ccccc2)c2ccc(OC(C)C)cc2)cc1", "IC30 [µM]": 18}

The recorded IC30 with BT-20 for `CC/C(=C(/c1ccccc1)c1ccc(OCCN(C)C)cc1)c1ccccc1` was 6.4

Form field IC30 for item `COc1ccc(/C(=C(/C#N)c2ccccc2)c2ccc(O)cc2)cc1` on BT-20: 6.8

* * *

- Test system: MCF7
- Method summary: Inhibitory activity against proliferation of MCF-7 cells in presence of 10e-6 M concentration of [3H]- estradiol (E2)
- Format: functional
- Particulars: Homo sapiens
Lab note: anything with IC30 below 6 µM is marked 1.0; values at 6 µM or higher are marked 0.0.

Worked set:
{"Smiles string": "CC(C)Oc1ccc(/C(=C(\\C#N)c2ccccc2)c2ccc(O)cc2)cc1", "Assigned label": 1.0}
{"Smiles string": "CC(C)Oc1ccc(C(=C(C#N)c2ccccc2)c2ccc(OC(C)C)cc2)cc1", "Assigned label": 0.0}
{"Smiles string": "CN(C)c1ccc(C(=C(C#N)c2ccccc2)c2ccc(N(C)C)cc2)cc1", "Assigned label": 1.0}
{"Smiles string": "N#CC(=C(c1ccc(O)cc1)c1ccc(O)cc1)c1ccc(O)cc1", "Assigned label": 0.0}
{"Smiles string": "CC/C(=C(\\c1ccccc1)c1ccc(OCCN(C)C)cc1)c1ccccc1", "Assigned label": 0.0}
{"Smiles string": "COc1ccc(/C(=C(\\C#N)c2ccccc2)c2ccc(O)cc2)cc1", "Assigned label": 0.0}
{"Smiles string": "CCN(CC)CCOc1ccc(/C(=C(\\C#N)c2ccccc2)c2ccc(O)cc2)cc1", "Assigned label": 1.0}
{"Smiles string": "Cc1ccc(/C(=C(/C#N)c2ccccc2)c2ccc(O)cc2)cc1", "Assigned label": 0.0}
{"Smiles string": "CC/C(=C(/c1ccc(O)cc1)c1ccc(OCCN(C)C)cc1)c1ccccc1", "Assigned label": 1.0}

Please look at the following compound next.
QUERY: Given the entry `N#C/C(=C(\c1ccccc1)c1ccc(O)cc1)c1ccccc1` , would its reported IC30 be below 6 µM?
RESULT: 0.0
